I'd be grateful if you could share measured normalized growth for these entries.
# ASSAY_NOTES: chemical genetic growth profiling, strain panel (AID 1159580);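 also: tested at 20 µM; growth read once vehicle control cultures reached saturation at 30 °C; 1 = growth at the plate median or of vehicle wells; lower values mean less growth of the strain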
# CONDITION_SUMMARY: S. cerevisiae deletion strains, growth OD, locus YDR162C, strain NBP2, stronger effect = lower value
The campaign covered roughly 5,500 compounds. About 2,000 (36%) were called active. About 18% were inconclusive and are not listed. This is one part of the list.
Give bare numbers.

// below: answered compounds
* O=c1[nH]cnc2c1ncn2C1O[C@H](CO)[C@@H](O)[C@H]1O (stereo partly drawn) | 1.01
* CC(=O)OC1CCC2(C)C3CC(=O)C4(C)C(CC5OC6(CCC(C)CO6)[C@@H](C)C54)C3CC[C@H]2C1 (stereo partly drawn) | 0.972

Could you now consider this next compound?
What value of normalized growth has been reported for the following compound? COP(=O)(OC)OC(Br)C(Cl)(Cl)Br (stereo not drawn)
0.988
